system: MS2 coat protein; experiment: apparent KD of MS2 coat protein; designed switch direction (-1 OFF switch, 1 ON switch): -1; higher = weaker reporter binding; conditions: Eterna round: R95; input ligand: FMN 200 uM
So I've got a bunch of sequences here, and I need their apparent KD of MS2 coat protein values.
One number for each entry, in nM.

Please review the following examples before continuing.
[[record]]
macromolecule_sequence = "UCAAGCUUUAAGCGCGUGAACAUGAGGAUCACCCAUGUAUUUCGGGUUUUGGUUUUUUGUAUGGGUUCUUGUCUUAU [JR_SWV3TOV1_Sub096] (puzzle: Sensor v3, turn-off variant 1)"
assay_system = "MS2 coat protein"
endpoint_name = "apparent KD of MS2 coat protein"
units = "nM"
observed_measurement = 39.2

[[record]]
macromolecule_sequence = "AGAAAGCAAGGAUAUACAAAGAAACGACCGAAAGAAAAGAAACAUGAGGAUCACCCAUGUAGAAGGUGCAAGAA [JR_Exclu2_Sub031] (puzzle: Exclusion 2)"
assay_system = "MS2 coat protein"
endpoint_name = "apparent KD of MS2 coat protein"
units = "nM"
observed_measurement = 19

[[record]]
macromolecule_sequence = "UGGUGGAAGCAGGAUAUGCUUGUAUUAUUGAUUGCAGAAGGGCUAACAUGAGGAUCACCCAUGUAAGAGGUGUU [JR_E6_Sub056] (puzzle: Exclusion 6)"
assay_system = "MS2 coat protein"
endpoint_name = "apparent KD of MS2 coat protein"
units = "nM"
observed_measurement = 303

[[record]]
macromolecule_sequence = "UUUUUCAGGCCAGAUCCUCACAUGAGGAUCACCCAUGUGCUCGUCUGUUUUCGCUCUAGCUUUUUUUUGGUAGUGCU [Level Boss var2-16] (puzzle: Sensor v3, turn-off variant 1)"
assay_system = "MS2 coat protein"
endpoint_name = "apparent KD of MS2 coat protein"
units = "nM"
observed_measurement = 164


Turning now to a further record.
Ask | Returns the measured apparent KD of MS2 coat protein for the input sequence. Input: ACAAGCUUUUUGCAAUUUAGUUUUGUUGCUUCGUAGGUAACAUGAGGAUCACCCAUGUAAGAGUGAUGUCGUCUUAU [JR_SV3TOV2_Sub084] (puzzle: Sensor v3, turn-off variant 2)
Reply | 520

---

test system: MS2 coat protein; experiment: apparent KD of MS2 coat protein, switch ON state; designed switch direction (-1 OFF switch, 1 ON switch): 1; higher = weaker reporter binding; settings: FMN input: 0 or 200 uM; Eterna round: R93 (includes R88 designs)
Values of apparent KD of MS2 coat protein greater than or equal to 0.04 µM map to YES; values below map to NO.

Known results for sequences:
[[record]]
macromolecule_sequence = "AAAAAACAUGAGGAUCACCCAUGUGAAAAUAUGGAAGGAUAUACCGAAAAAAAAAAAAAGGUAGAAGGUCUAAAAA [SS! 1 MT 4]"
cat = "NO"

[[record]]
macromolecule_sequence = "GAAAAACAUGAGGAUCACCCAUGUGAAAAUAUGGGAGGAUAUACUAAGACGAAAGUCGAGGUAGAAGGCCUAAAAG [Same State 1.4h (Mat - Mod of Eli - )]"
cat = "NO"

[[record]]
macromolecule_sequence = "AACAAUCUAUCUGAGGAUAUCAUGUCAAAGACAUGAGGAUCACCCAUGUACCAGGAAACUGGUUAUGAGAAGGCAGAUAGAUUGA [SS2: 1115]"
cat = "NO"

[[record]]
macromolecule_sequence = "AAAAAACAUGAGGAUCACCCAUGUCGAAAGACGUGAGGAUAUGUACAGACUUCGGUCUGUACAGAAGGCAUGUAAA [SS1 - 1054]"
cat = "YES"

[[record]]
macromolecule_sequence = "UAAAAACAUGAGGAUCACCCAUGUAGAAAUAUGGGAGGAUAUACGAAGACGAAAGUCAAAGUAGAAGGCCUAAAAU [Mat - Same State 1 - Eli mod - D104]"
cat = "NO"


Now, please, on to the next sequence.
Ask | Tell me whether apparent KD of MS2 coat protein is at least 0.04 µM here: AAUAAACAUGAGGAUCACCCAUGUCUUUUACAUCAAGGAUAUGGGAUCGGAAAUCCGACACCAGAAGGUGAGUAGA [Userra]
Reply | YES
